- measurement_target: Bromodomain-containing protein 4 (Homo sapiens, UniProt O60885)
- assay_method_text: Binding affinity to BRD4-T (unknown origin)
# key: entry, value: Kd
Quick reminder: number only, in nM, skip the unit.

Previously resolved entries follow.
query_smiles: Cc1cnc(Nc2ccc(C(=O)NC3CCN(C(=O)CCOCCOCCOCCOCCC(=O)N4CCC(NC(=O)c5ccc(Nc6ncc(C)c(Nc7ccc(Cl)c(NS(=O)(=O)C(C)(C)C)c7)n6)cc5F)CC4)CC3)c(F)c2)nc1Nc1ccc(Cl)c(NS(=O)(=O)C(C)(C)C)c1
unit_string: nM
result: 2.8
//
query_smiles: Cc1cnc(Nc2ccc(C(=O)NC3CCNCC3)c(F)c2)nc1Nc1cc(NS(=O)(=O)C(C)(C)C)cc(C(=O)NCCOCCOCCOCCC(=O)N2CCC(NC(=O)c3ccc(Nc4ncc(C)c(Nc5ccc(Cl)c(NS(=O)(=O)C(C)(C)C)c5)n4)cc3F)CC2)c1
unit_string: nM
result: 1.7
//
query_smiles: Cc1cnc(Nc2ccc(C(=O)NC3CCN(C(=O)COCCOCCOCC(=O)N4CCC(NC(=O)c5ccc(Nc6ncc(C)c(Nc7ccc(Cl)c(NS(=O)(=O)C(C)(C)C)c7)n6)cc5F)CC4)CC3)c(F)c2)nc1Nc1ccc(Cl)c(NS(=O)(=O)C(C)(C)C)c1
unit_string: nM
result: 4.8
//
query_smiles: Cc1cnc(Nc2ccc(C(=O)NC3CCN(C)CC3)c(F)c2)nc1Nc1ccc(Cl)c(NS(=O)(=O)C(C)(C)C)c1
unit_string: nM
result: 6.7
//
query_smiles: CCS(=O)(=O)Nc1ccc(Oc2ccc(Cl)cc2)c(-c2cn(C)c(=O)c3ccccc23)c1
unit_string: nM
result: 2.3
//
query_smiles: Cc1cnc(Nc2ccc(C(=O)NC3CCN(C(=O)COCCOCC(=O)N4CCC(NC(=O)c5ccc(Nc6ncc(C)c(Nc7ccc(Cl)c(NS(=O)(=O)C(C)(C)C)c7)n6)cc5F)CC4)CC3)c(F)c2)nc1Nc1ccc(Cl)c(NS(=O)(=O)C(C)(C)C)c1
unit_string: nM
result: 3.6
//
query_smiles: Cc1cnc(Nc2ccc(C(=O)NC3CCN(C(=O)CCOCCOCCOCCOCCOCCC(=O)N4CCC(NC(=O)c5ccc(Nc6ncc(C)c(Nc7ccc(Cl)c(NS(=O)(=O)C(C)(C)C)c7)n6)cc5F)CC4)CC3)c(F)c2)nc1Nc1ccc(Cl)c(NS(=O)(=O)C(C)(C)C)c1
unit_string: nM
result: 1.6

Now for a further compound.
Query: Kindly state the measured Kd obtained for CCS(=O)(=O)Nc1ccc(OCCOCCOCCOCCOc2ccc(NS(=O)(=O)CC)cc2-c2cn(C)c(=O)c3ccccc23)c(-c2cn(C)c(=O)c3ccccc23)c1 with Bromodomain-containing protein 4 (Homo sapiens, UniProt O60885).
Reply: 0.29

* * *

# key: entry, value: pKd
- measurement_target: Bromodomain-containing protein 4 (Homo sapiens)
- assay_method_text: Inhibition of recombinant human BRD4-2 (333 to 460 residues) expressed in bacterial expression system by bromoscan assay
# pKd = -log10(concentration in molar units)

query_smiles: Cc1cnc(Nc2ccc(C(=O)NC3CCN(C(=O)COCCOCCOCC(=O)N4CCC(NC(=O)c5ccc(Nc6ncc(C)c(Nc7ccc(Cl)c(NS(=O)(=O)C(C)(C)C)c7)n6)cc5F)CC4)CC3)c(F)c2)nc1Nc1ccc(Cl)c(NS(=O)(=O)C(C)(C)C)c1
measurement_target: Bromodomain-containing protein 4 (Homo sapiens)
result: 8.04

Now for a further compound.
Query: Kindly state the measured pKd obtained for Cc1cnc(Nc2ccc(C(=O)NC3CCN(C(=O)CCOCCOCCOCCOCCOCCC(=O)N4CCC(NC(=O)c5ccc(Nc6ncc(C)c(Nc7ccc(Cl)c(NS(=O)(=O)C(C)(C)C)c7)n6)cc5F)CC4)CC3)c(F)c2)nc1Nc1ccc(Cl)c(NS(=O)(=O)C(C)(C)C)c1 with Bromodomain-containing protein 4 (Homo sapiens).
Reply: 8.82
